Target: Glutamate carboxypeptidase 2 (Homo sapiens, UniProt Q04609)
Sequence (Q04609 whole entry): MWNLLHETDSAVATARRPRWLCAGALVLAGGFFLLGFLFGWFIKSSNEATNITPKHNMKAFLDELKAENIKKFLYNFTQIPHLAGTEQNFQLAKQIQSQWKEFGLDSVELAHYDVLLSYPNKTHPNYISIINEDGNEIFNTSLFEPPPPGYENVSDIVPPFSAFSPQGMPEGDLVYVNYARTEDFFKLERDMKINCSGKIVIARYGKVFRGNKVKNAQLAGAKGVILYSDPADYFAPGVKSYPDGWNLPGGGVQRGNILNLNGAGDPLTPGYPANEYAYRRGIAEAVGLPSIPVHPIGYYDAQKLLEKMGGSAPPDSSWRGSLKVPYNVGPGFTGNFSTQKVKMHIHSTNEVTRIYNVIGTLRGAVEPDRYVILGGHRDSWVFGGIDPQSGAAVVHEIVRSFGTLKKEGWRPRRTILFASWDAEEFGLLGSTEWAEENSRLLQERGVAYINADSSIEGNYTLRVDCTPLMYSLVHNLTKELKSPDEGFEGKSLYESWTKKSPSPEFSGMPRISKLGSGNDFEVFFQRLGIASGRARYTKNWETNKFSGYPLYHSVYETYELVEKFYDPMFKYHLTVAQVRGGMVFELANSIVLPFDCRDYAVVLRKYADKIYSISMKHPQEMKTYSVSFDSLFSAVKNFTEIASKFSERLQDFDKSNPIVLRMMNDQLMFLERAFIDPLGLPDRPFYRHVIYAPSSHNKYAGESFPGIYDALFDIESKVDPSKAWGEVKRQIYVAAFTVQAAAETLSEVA
Assay: Inhibition of glutamate carboxypeptidase 2 in human LNCaP cells by fluorescence based NAALADase assay
Format: cell-based
endpoint.label: Ki (µM)

// worked examples, Ki included
COC(=O)[C@H](CC(C)C)NC(=O)N[C@H](C(=O)O)c1ccc(O)c(I)c1; 0.475
CC(C)C[C@H](NC(=O)N[C@@H](Cc1ccc(O)c(I)c1)C(=O)O)C(=O)O; 13
CC(C)C[C@H](NC(=O)NC(C(=O)O)c1cc(O)cc(O)c1)C(=O)O (stereo partly specified); 13

P: COC(=O)[C@H](CC(C)C)NC(=O)NC(C(=O)O)c1ccc(O)c(OC)c1 (stereo partly specified)
Q: CC(C)C[C@H](NC(=O)N[C@@H](Cc1ccc(O)cc1)C(=O)O)C(=O)O
Select one: P or Q . Criterion: greater recorded Ki. Response format: the label of the selected entry.
Q
(Q: 0.7 µM, P: 0.153 µM)

1: CC(C)C[C@H](NC(=O)N[C@@H](Cc1cccc(C(=O)O)c1)C(=O)O)C(=O)O
2: COC(=O)[C@H](CC(C)C)NC(=O)N[C@H](C(=O)O)c1cc(Br)c(O)c(Br)c1
3: COC(=O)[C@H](CC(C)C)NC(=O)N[C@H](C(=O)O)c1ccc(O)c(Br)c1
Please give the order of these compounds when sorted by Ki, largest value leading. The labels, placed in the requested order, form the answer.
1, 2, 3

---

Molecular target: Glutamate carboxypeptidase 2 (Homo sapiens)
Assay: Inhibition of human cloned glutamate carboxypeptidase 2
endpoint.label: Ki (nM)

O=C(N[C@@H](CCCCNC(=O)c1ccc(I)cc1)C(=O)O)N[C@H](Cc1cccs1)C(=O)O; 795
C#CC[C@H](NC(=O)N[C@@H](CCCCNC(=O)c1ccc(I)cc1)C(=O)O)C(=O)O; 5.3
CC(=O)SCCC[C@H](NC(=O)N[C@@H](CCCCNC(=O)c1ccc(I)cc1)C(=O)O)C(=O)O; 24.1
O=C(N[C@@H](CCCCNC(=O)c1ccc(I)cc1)C(=O)O)N[C@H](Cc1ccco1)C(=O)O; 794
O=C(N[C@@H](CCCCNC(=O)c1ccc(I)cc1)C(=O)O)N[C@@H](Cc1cscn1)C(=O)O; 16.1

I: O=C(O)CCCNC(=O)N[C@@H](CCCCNC(=O)c1ccc(I)cc1)C(=O)O
II: O=C(N[C@@H](CCCCNC(=O)c1ccc(I)cc1)C(=O)O)N[C@H](C(=O)O)c1ccc(O)cc1
Compare Ki: is it lower for I or for II ? When you have decided, please share the label of that item.
II

1: O=C(N[C@@H](CCCCNC(=O)c1ccc(I)cc1)C(=O)O)N[C@@H](CC1CO1)C(=O)O (some centres undefined)
2: O=C(N[C@@H](CCCCNC(=O)c1ccc(I)cc1)C(=O)O)N[C@@H](Cc1ccco1)C(=O)O
From the items above, decide which of 1 and 2 has the lower Ki reading. Pick one; state its label.
2
(2: 5.3 nM, 1: 254 nM)

---

Target: Glutamate carboxypeptidase 2 (Homo sapiens, UniProt Q04609)
Assay: Inhibition of glutamate carboxypeptidase 2 in human LNCaP cells by fluorescence based NAALADase assay
Assay type: cell-based
endpoint.label: Ki (µM)

Look over these answered cases.
COc1cc(C(NC(=O)N[C@@H](CC(C)C)C(=O)OC(C)C)C(=O)O)ccc1O (stereo not given in full); 0.081
COc1cc(C(NC(=O)N[C@@H](CC(C)C)C(=O)O)C(=O)O)ccc1O (stereo not given in full); 0.25
COC(=O)[C@H](CC(C)C)NC(=O)N[C@@H](CCC(N)=O)C(=O)O; 7.5
CC(C)C[C@H](NC(=O)N[C@H](C(=O)O)c1ccc(O)cc1)C(=O)O; 0.775
COC(=O)[C@H](CC(C)C)NC(=O)NC(C(=O)O)c1ccc(O)c(F)c1 (stereo not given in full); 3

A: CSCCC[C@H](NC(=O)N[C@@H](CC(C)C)C(=O)O)C(=O)O
B: CC(C)C[C@H](NC(=O)NC(C(=O)O)c1ccc(O)c(I)c1)C(=O)OC(C)C (stereo not given in full)
Which of these two has the smaller recorded Ki: A or B ? Write the label of whichever entry you select.
B
(B: 0.275 µM, A: 3.5 µM)

---

Biological target: Glutamate carboxypeptidase 2 (Homo sapiens, UniProt Q04609)
Assay: Inhibition of glutamate carboxypeptidase 2 in human LNCaP cells by fluorescence based NAALADase assay
Format: cell-based
Listed here are compounds together with their documented Ki.

In the examples that follow, each entry is paired with its recorded Ki.
COC(=O)[C@H](CC(C)C)NC(=O)N[C@@H](CCCSC)C(=O)O; > 1000 µM
COC(=O)[C@H](CC(C)C)NC(=O)N[C@@H](Cc1cccc(O)c1)C(=O)O; > 1000 µM

The record that follows has no Ki shown yet.
Supply reported Ki belonging to this compound: COC(=O)[C@H](CC(C)C)NC(=O)NC(C(=O)O)c1cccc(O)c1 (stereo partly drawn)
> 1000 µM

---

Target: Glutamate carboxypeptidase 2 (Homo sapiens)
Assay: Inhibition of glutamate carboxypeptidase 2 in human LNCaP cells by fluorescence based NAALADase assay
Format: cell-based
Measured Ki values are reported for all entries that follow.

Some solved cases for reference:
CC(C)C[C@H](NC(=O)NC(C(=O)O)c1cccc(O)c1)C(=O)O (stereo partly drawn); > 1000 µM
COC(=O)[C@H](CC(C)C)NC(=O)N[C@@H](Cc1cccc(C(=O)O)c1)C(=O)O; > 1000 µM

Complete the entry with Ki for COC(=O)[C@H](CC(C)C)NC(=O)NC(C(=O)O)c1ccc(F)c(OC)c1 (stereo partly drawn)
> 1000 µM
